Biological target: UniProtKB P21397
Sequence (P21397 whole entry): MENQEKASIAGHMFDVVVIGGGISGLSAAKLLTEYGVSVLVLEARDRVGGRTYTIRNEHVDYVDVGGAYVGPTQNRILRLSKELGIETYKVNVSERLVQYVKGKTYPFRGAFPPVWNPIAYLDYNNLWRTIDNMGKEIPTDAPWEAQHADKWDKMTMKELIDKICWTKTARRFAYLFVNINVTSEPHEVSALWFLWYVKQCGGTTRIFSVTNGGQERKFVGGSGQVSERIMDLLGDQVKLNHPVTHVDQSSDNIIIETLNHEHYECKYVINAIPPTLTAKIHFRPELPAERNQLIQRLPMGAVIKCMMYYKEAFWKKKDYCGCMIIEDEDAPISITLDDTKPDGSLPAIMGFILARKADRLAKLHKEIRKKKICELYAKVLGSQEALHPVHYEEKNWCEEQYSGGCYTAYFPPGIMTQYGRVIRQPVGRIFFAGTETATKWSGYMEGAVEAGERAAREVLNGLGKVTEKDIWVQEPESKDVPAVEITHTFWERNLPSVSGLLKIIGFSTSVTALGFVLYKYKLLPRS
Test: Inhibition of human recombinant MAOA using kynuramine as substrate incubated for 10 mins by UPLC-ESI-MS/MS analysis
IC50 values, listed per item

{"columns": ["compound", "modifier", "IC50 (µM)"],
 "data": [
  ["Cc1cc(-c2cncnc2)c(O)c2c1C[C@@H](C)OC2=O", "=", 0.14],
  ["C[C@@H]1Cc2cccc(O)c2C(=O)O1 [(-)-(R)-MELLEIN]", "=", 6.2],
  ["Cc1cc(-c2cccc(N)c2)c(O)c2c1C[C@@H](C)OC2=O", "=", 0.2],
  ["CCN(CC)C(=O)c1cc(C)c2c(c1O)C(=O)O[C@H](C)C2", ">", 50],
  ["Cc1ccc(O)c2c1CC(C)(C)OC2=O", ">", 50],
  ["Cc1cc(C(=O)NCCN2CCOCC2)c(O)c2c1C[C@@H](C)OC2=O", ">", 50]
]}

---

Ratio IC50 values, listed per item
Organism: Homo sapiens
Assay: Selectivity index, ratio of IC50 for human recombinant MAOB to IC50 for human recombinant MAOA
measure: Ratio IC50

{"columns": ["molecular_string", "measure", "observed_result"],
 "data": [
  ["Cc1cc(C)c2c(c1O)C(=O)O[C@H](C)C2", "Ratio IC50", "> 13"],
  ["Cc1cc(-c2ccc(N)cc2)c(O)c2c1C[C@@H](C)OC2=O", "Ratio IC50", 26],
  ["CCCCc1cc(C)c2c(c1O)C(=O)O[C@H](C)C2", "Ratio IC50", "> 2.7"],
  ["CC[C@@H]1Cc2c(C)ccc(O)c2C(=O)O1", "Ratio IC50", "> 6.2"],
  ["Cc1cc(-c2cncnc2)c(O)c2c1C[C@@H](C)OC2=O", "Ratio IC50", "> 350"],
  ["Cc1cc([N+](=O)[O-])c(O)c2c1C[C@@H](C)OC2=O", "Ratio IC50", "> 3.1"]
]}

---

Target: Amine oxidase [flavin-containing] B (Homo sapiens, UniProt P27338)
Sequence (P27338 whole entry): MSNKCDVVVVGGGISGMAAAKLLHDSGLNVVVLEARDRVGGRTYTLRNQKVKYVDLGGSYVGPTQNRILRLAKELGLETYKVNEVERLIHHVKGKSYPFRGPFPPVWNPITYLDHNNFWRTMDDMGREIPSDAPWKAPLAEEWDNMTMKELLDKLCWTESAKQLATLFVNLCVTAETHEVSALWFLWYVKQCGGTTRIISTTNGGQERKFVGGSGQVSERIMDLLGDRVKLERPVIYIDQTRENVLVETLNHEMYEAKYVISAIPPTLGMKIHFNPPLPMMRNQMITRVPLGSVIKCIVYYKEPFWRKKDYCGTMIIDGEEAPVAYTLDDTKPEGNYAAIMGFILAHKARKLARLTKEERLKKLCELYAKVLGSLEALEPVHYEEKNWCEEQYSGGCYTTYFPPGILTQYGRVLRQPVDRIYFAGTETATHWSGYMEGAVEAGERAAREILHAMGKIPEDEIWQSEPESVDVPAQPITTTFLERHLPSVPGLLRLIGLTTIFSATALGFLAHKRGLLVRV
Assay: Inhibition of human recombinant MAOB using kynuramine as substrate incubated for 10 mins by UPLC-ESI-MS/MS analysis
pIC50: −log10 of the molar value.
measure: pIC50

{"columns": ["molecular_string", "modifier", "observed_result"],
 "data": [
  ["Cc1cc(C(=O)O)c(O)c2c1C[C@@H](C)OC2=O", "<", 4.30],
  ["C[C@@H]1Cc2c(C(=O)O)ccc(O)c2C(=O)O1", "<", 4.30],
  ["Cc1cc(-c2ccc(C(F)(F)F)cc2)c(O)c2c1C[C@@H](C)OC2=O", "=", 6.00],
  ["CCc1ccc(O)c2c1C[C@@H](C)OC2=O", "=", 4.79],
  ["Cc1ccc(O)c2c1CCOC2=O", "=", 5.26],
  ["CC[C@@H]1Cc2c(C)ccc(O)c2C(=O)O1", "<", 4.30]
]}
